# study_system: Cruzipain (Trypanosoma cruzi, UniProt P25779)
# Sequence (P25779 whole entry): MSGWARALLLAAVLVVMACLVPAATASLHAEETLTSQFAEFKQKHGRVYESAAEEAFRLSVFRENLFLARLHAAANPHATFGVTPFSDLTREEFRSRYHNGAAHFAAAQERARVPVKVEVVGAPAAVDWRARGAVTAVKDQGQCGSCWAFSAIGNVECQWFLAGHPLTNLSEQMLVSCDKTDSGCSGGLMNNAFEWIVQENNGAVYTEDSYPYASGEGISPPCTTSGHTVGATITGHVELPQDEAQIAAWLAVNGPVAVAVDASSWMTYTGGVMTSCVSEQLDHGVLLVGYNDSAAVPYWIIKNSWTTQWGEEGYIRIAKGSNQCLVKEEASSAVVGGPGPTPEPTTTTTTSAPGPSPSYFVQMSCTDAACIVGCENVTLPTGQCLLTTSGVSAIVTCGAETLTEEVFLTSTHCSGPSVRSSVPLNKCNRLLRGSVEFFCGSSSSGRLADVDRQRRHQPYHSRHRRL
pKi: −log10 of the molar value.
The reader will find reported pKi values listed item by item below.

Record excerpt, results attached:
C[C@@H]1OCC(=O)[C@H]1NC(=O)[C@H](CC1CCCCC1)SCc1ccco1 = < 4.00
C[C@H]1OCC(=O)[C@H]1NC(=O)[C@H](Cc1ccccc1)OCc1cccc2ccccc12 (racemic) = < 4.00

Prompt: Which measured pKi belongs to CC(C)C[C@H](CC(=O)n1ccc(-c2ccccc2)c1)C(=O)N[C@@H]1C(=O)CO[C@@H]1C , tested on Cruzipain (Trypanosoma cruzi, UniProt P25779)?
Response: > 5.30

Prompt: Request body: readout pKi, system Cruzipain (Trypanosoma cruzi, UniProt P25779), query CC(C)CC(C(=O)N[C@H]1C(=O)CO[C@@H]1C)c1cccc(-c2ccccc2)c1 (mixture of isomers) . Return the value.
Response: < 5.00

====

# study_system: Bovine Cathepsin S (Bos taurus)
# Construct: purchased CN Biosciences
# Sequence (P25326 115-331): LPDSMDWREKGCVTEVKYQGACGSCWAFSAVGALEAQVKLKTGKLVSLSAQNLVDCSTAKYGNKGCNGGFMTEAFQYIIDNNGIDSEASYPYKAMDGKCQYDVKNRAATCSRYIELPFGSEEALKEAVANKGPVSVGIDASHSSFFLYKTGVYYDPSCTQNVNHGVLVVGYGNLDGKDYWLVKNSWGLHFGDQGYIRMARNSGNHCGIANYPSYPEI
# experimental_protocol: Cathepsin peptidase activity assay, bovine cathepsin S (Ki)
# Format: biochemical
# condition: pH 6.5, 25±1° C.
parameter_measured: Ki

C[C@@H]1OCC(=O)[C@H]1NC(=O)[C@H](CC1CCCCC1)SCc1ccco1 = < 10 µM
C[C@H]1OCC(=O)[C@H]1NC(=O)[C@H](Cc1ccccc1)OCc1cccc2ccccc12 (racemic) = > 100 µM
CC(C)CC(C(=O)N[C@H]1C(=O)CO[C@@H]1C)c1cccc(-c2ccccc2)c1 (mixture of isomers) = > 20 µM

# input for lookup
Prompt: Quick check: Ki of CC(C)C[C@H](CC(=O)n1ccc(-c2ccccc2)c1)C(=O)N[C@@H]1C(=O)CO[C@@H]1C ?
Response: > 50 µM

====

Recorded below: Ki, system Human Cathepsin L (Homo sapiens, UniProt P07711).

C[C@H]1OCC(=O)[C@H]1NC(=O)[C@H](Cc1ccccc1)OCc1cccc2ccccc12 (racemic) [Example 49] = < 10 µM

Prompt: Requested read-out: Ki. Entry: C[C@@H]1OCC(=O)[C@H]1NC(=O)[C@H](CC1CCCCC1)SCc1ccco1 [Example 4]
Response: > 100 µM
